Experiment: Partition coefficient, log P of the compound
Type: physicochemical
Conditions: octanol/water
experimentalEndpoint: logP
API note: the answer field is a bare number with no unit suffix.

Which measured logP value corresponds to CC1=C(/C=C/C(C)=C\C=C\C(C)=C\C=N/NC(N)=S)C(C)(C)CCC1 ? 1.05
